# target_system: Fatty-acid amide hydrolase 1 (Rattus norvegicus, UniProt P97612)
# Sequence (P97612 whole entry): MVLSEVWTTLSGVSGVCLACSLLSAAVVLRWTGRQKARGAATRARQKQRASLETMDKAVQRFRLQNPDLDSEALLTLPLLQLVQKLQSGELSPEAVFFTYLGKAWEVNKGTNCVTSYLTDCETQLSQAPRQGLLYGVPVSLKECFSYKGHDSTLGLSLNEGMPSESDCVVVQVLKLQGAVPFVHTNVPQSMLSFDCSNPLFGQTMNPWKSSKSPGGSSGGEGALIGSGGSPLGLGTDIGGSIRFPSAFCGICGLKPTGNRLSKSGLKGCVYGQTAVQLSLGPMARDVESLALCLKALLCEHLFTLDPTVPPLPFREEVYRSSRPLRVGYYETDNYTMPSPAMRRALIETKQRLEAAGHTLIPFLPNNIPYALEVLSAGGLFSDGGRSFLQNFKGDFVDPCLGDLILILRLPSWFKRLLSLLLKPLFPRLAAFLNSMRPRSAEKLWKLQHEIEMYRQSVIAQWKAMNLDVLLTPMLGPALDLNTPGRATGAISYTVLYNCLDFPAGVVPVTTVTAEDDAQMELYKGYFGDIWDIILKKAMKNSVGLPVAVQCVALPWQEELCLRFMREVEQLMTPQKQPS
# method_summary: Inhibition of FAAH in rat brain membranes assessed as [14C]AEA hydrolysis to [14C]Ethanolamine after 30 mins by scintillation counting analysis
Exam item: assign criterion met to entries whose IC50 is below 20 nM and criterion not met to entries at or above 20 nM. Note that a value of exactly 20 nM receives criterion not met.

[
  {
    "smiles_repr": "COC(=O)c1cccc(-c2ccc(Cc3nnnn3C(=O)N(C)C)cc2)c1",
    "target_system": "Fatty-acid amide hydrolase 1 (Rattus norvegicus, UniProt P97612)",
    "class_assignment": "criterion met"
  },
  {
    "smiles_repr": "CN(C)C(=O)n1nnnc1Cc1ccc(-c2ccc(O)cc2)cc1",
    "target_system": "Fatty-acid amide hydrolase 1 (Rattus norvegicus, UniProt P97612)",
    "class_assignment": "criterion met"
  },
  {
    "smiles_repr": "CN(C)C(=O)n1nnc(Cc2ccc(-c3cccc(O)c3)cc2)n1",
    "target_system": "Fatty-acid amide hydrolase 1 (Rattus norvegicus, UniProt P97612)",
    "class_assignment": "criterion met"
  },
  {
    "smiles_repr": "CN(C)C(=O)n1nnnc1Cc1ccc(-c2ccc(CO)cc2)cc1",
    "target_system": "Fatty-acid amide hydrolase 1 (Rattus norvegicus, UniProt P97612)",
    "class_assignment": "criterion not met"
  },
  {
    "smiles_repr": "CN(C(=O)n1nnc(Cc2ccc(-c3ccccc3)cc2)n1)C1CCCCC1",
    "target_system": "Fatty-acid amide hydrolase 1 (Rattus norvegicus, UniProt P97612)",
    "class_assignment": "criterion not met"
  },
  {
    "smiles_repr": "CN(C)C(=O)n1nnc(Cc2ccc(-c3ccccc3O)cc2)n1",
    "target_system": "Fatty-acid amide hydrolase 1 (Rattus norvegicus, UniProt P97612)",
    "class_assignment": "criterion not met"
  },
  {
    "smiles_repr": "CC(=O)c1cccc(-c2ccc(Cc3nnnn3C(=O)N(C)C)cc2)c1",
    "target_system": "Fatty-acid amide hydrolase 1 (Rattus norvegicus, UniProt P97612)",
    "class_assignment": "criterion met"
  },
  {
    "smiles_repr": "CN(C)C(=O)n1nnnc1Cc1ccc(-c2cccc(O)c2)cc1",
    "target_system": "Fatty-acid amide hydrolase 1 (Rattus norvegicus, UniProt P97612)",
    "class_assignment": "criterion met"
  },
  {
    "smiles_repr": "CN(CCCCc1ccccc1)C(=O)n1nnc(Cc2ccc(-c3ccccc3)cc2)n1",
    "target_system": "Fatty-acid amide hydrolase 1 (Rattus norvegicus, UniProt P97612)",
    "class_assignment": "criterion met"
  },
  {
    "smiles_repr": "CN(CCCCc1ccccc1)C(=O)n1nnnc1Cc1ccc(-c2ccccc2)cc1",
    "target_system": "Fatty-acid amide hydrolase 1 (Rattus norvegicus, UniProt P97612)",
    "class_assignment": "criterion not met"
  },
  {
    "smiles_repr": "CN(C)C(=O)n1nnc(Cc2ccc(-c3ccc(O)cc3)cc2)n1",
    "target_system": "Fatty-acid amide hydrolase 1 (Rattus norvegicus, UniProt P97612)",
    "class_assignment": "criterion met"
  },
  {
    "smiles_repr": "CN(C)C(=O)n1nnnc1Cc1ccc(-c2cccc(CO)c2)cc1",
    "target_system": "Fatty-acid amide hydrolase 1 (Rattus norvegicus, UniProt P97612)",
    "class_assignment": "criterion met"
  },
  {
    "smiles_repr": "CC(=O)c1cccc(-c2ccc(Cc3nnn(C(=O)N(C)C)n3)cc2)c1",
    "target_system": "Fatty-acid amide hydrolase 1 (Rattus norvegicus, UniProt P97612)",
    "class_assignment": "criterion not met"
  }
]

----------
# target_system: Transient receptor potential cation channel subfamily A member 1 (Rattus norvegicus) (UniProt Q6RI86)
# Sequence (Q6RI86 whole entry): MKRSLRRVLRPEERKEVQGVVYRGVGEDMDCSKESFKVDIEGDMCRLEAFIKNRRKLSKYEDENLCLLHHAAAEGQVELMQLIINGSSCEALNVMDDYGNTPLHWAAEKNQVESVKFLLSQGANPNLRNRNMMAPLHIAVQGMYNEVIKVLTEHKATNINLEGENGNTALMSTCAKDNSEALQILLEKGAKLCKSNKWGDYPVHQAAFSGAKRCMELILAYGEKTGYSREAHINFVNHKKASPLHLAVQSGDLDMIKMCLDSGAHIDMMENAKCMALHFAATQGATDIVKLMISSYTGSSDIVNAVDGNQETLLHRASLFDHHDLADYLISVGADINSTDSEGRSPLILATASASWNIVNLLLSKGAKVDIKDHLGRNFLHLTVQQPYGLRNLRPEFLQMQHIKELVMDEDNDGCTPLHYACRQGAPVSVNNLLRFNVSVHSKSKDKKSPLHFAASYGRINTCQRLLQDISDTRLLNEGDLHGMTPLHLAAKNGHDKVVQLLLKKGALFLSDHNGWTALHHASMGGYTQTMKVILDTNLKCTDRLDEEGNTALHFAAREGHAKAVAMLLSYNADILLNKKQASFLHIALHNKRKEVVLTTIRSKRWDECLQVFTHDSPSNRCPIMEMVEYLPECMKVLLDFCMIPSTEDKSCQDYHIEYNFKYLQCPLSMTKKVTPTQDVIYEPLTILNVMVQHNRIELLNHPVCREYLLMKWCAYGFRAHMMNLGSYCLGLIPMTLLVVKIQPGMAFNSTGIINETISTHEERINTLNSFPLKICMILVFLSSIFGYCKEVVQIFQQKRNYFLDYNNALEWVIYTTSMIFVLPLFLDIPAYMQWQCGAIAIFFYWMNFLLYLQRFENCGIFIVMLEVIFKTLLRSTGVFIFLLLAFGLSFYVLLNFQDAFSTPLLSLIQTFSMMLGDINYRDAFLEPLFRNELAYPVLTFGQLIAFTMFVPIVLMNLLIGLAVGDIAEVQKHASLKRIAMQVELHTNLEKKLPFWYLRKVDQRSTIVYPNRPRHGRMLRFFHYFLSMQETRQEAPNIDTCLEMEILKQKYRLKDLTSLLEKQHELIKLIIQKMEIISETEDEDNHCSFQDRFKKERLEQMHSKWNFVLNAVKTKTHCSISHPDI
# method_summary: Agonist activity at rat TRPA1 receptor expressed in HEK293 cells assessed as increase in intracellular Ca2+ concentration by spectrofluorimetric analysis relative to allyl isothiocyanate
# Format: cell-based

[
  {
    "smiles_repr": "CN(CCCCc1ccccc1)C(=O)n1nnnc1Cc1ccc(-c2ccccc2)cc1",
    "Efficacy": "89.9%"
  },
  {
    "smiles_repr": "CN(Cc1ccc2ccccc2c1)C(=O)n1nnc(Cc2ccc(-c3ccccc3)cc2)n1",
    "Efficacy": "< 10%"
  },
  {
    "smiles_repr": "CN(C(=O)n1nnc(Cc2ccc(-c3ccccc3)cc2)n1)C1CCCCC1",
    "Efficacy": "45.2%"
  },
  {
    "smiles_repr": "CC(=O)c1cccc(-c2ccc(Cc3nnnn3C(=O)N(C)C)cc2)c1",
    "Efficacy": "< 10%"
  },
  {
    "smiles_repr": "Cc1ccccc1-c1ccc(Cc2nnn(C(=O)N(C)C)n2)cc1",
    "Efficacy": "202%"
  },
  {
    "smiles_repr": "CN(C)C(=O)n1nnnc1Cc1ccc(-c2cccc(CO)c2)cc1",
    "Efficacy": "< 10%"
  },
  {
    "smiles_repr": "CN(C)C(=O)n1nnc(Cc2ccc(-c3cccc(O)c3)cc2)n1",
    "Efficacy": "< 10%"
  },
  {
    "smiles_repr": "CN(Cc1ccc2ccccc2c1)C(=O)n1nnnc1Cc1ccc(-c2ccccc2)cc1",
    "Efficacy": "53.9%"
  },
  {
    "smiles_repr": "CN(C)C(=O)n1nnnc1Cc1ccc(-c2ccccc2O)cc1",
    "Efficacy": "228%"
  },
  {
    "smiles_repr": "CN(C)C(=O)n1nnc(Cc2ccc(-c3cccc(C(N)=O)c3)cc2)n1",
    "Efficacy": "< 10%"
  },
  {
    "smiles_repr": "CN(C(=O)n1nnnc1Cc1ccc(-c2ccccc2)cc1)C1CCCCC1",
    "Efficacy": "84.7%"
  },
  {
    "smiles_repr": "CN(C)C(=O)n1nnc(Cc2ccc(-c3ccccc3O)cc2)n1",
    "Efficacy": "445%"
  },
  {
    "smiles_repr": "CN(C)C(=O)n1nnc(Cc2ccc(-c3ccccc3)cc2)n1",
    "Efficacy": "186%"
  },
  {
    "smiles_repr": "CN(C)C(=O)n1nnnc1Cc1ccc(-c2cccc(C(N)=O)c2)cc1",
    "Efficacy": "30.7%"
  },
  {
    "smiles_repr": "Cc1ccccc1-c1ccc(Cc2nnnn2C(=O)N(C)C)cc1",
    "Efficacy": "349%"
  },
  {
    "smiles_repr": "COC(=O)c1cccc(-c2ccc(Cc3nnn(C(=O)N(C)C)n3)cc2)c1",
    "Efficacy": "< 10%"
  },
  {
    "smiles_repr": "CN(C)C(=O)n1nnc(Cc2ccc(-c3ccc(O)cc3)cc2)n1",
    "Efficacy": "109%"
  },
  {
    "smiles_repr": "COC(=O)c1cccc(-c2ccc(Cc3nnnn3C(=O)N(C)C)cc2)c1",
    "Efficacy": "< 10%"
  },
  {
    "smiles_repr": "O=C(N1CCCCC1)n1nnc(Cc2ccc(-c3ccccc3)cc2)n1",
    "Efficacy": "130%"
  },
  {
    "smiles_repr": "CN(C)C(=O)n1nnnc1Cc1ccc(-c2ccc(CO)cc2)cc1",
    "Efficacy": "58.7%"
  }
]

----------
# target_system: Transient receptor potential cation channel subfamily V member 1 (Homo sapiens)
# Sequence (Q8NER1 whole entry): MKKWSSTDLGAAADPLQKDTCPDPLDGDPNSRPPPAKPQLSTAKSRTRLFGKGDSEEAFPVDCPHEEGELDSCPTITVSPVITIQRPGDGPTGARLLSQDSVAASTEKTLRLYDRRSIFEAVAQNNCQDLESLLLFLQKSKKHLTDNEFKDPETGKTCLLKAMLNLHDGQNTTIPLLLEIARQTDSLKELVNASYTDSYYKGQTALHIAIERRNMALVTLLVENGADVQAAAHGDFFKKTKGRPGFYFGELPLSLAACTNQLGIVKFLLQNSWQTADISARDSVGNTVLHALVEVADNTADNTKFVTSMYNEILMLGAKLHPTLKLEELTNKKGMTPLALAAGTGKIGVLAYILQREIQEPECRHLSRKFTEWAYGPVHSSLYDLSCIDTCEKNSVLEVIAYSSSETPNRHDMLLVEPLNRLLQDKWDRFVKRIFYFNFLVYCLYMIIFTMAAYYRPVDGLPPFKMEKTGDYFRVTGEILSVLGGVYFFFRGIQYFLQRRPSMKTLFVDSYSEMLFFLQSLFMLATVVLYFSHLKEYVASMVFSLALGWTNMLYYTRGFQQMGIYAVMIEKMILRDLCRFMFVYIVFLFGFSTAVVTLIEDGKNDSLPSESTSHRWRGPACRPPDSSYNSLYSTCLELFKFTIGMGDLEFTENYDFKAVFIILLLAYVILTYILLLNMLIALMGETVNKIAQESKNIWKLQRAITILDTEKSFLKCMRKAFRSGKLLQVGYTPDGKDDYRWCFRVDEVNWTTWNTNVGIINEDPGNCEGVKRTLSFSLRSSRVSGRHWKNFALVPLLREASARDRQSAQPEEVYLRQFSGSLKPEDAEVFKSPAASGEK
# method_summary: Antagonist activity at human TRPV1 receptor expressed in HEK293 cells assessed as inhibition of capsaicin-induced intracellular Ca2+ elevation incubated for 5 mins prior to capsaicin-stimulation by spectrofluorimetric analysis
Parameter IC50: see the listing below.
property_label: IC50

[
  {
    "smiles_repr": "CN(C)C(=O)n1nnnc1Cc1ccc(-c2cccc(O)c2)cc1",
    "target_system": "Transient receptor potential cation channel subfamily V member 1 (Homo sapiens)",
    "property_label": "IC50",
    "reported": "67.4 µM"
  },
  {
    "smiles_repr": "O=C(N1CCCCC1)n1nnc(Cc2ccc(-c3ccccc3)cc2)n1",
    "target_system": "Transient receptor potential cation channel subfamily V member 1 (Homo sapiens)",
    "property_label": "IC50",
    "reported": "7.4 µM"
  },
  {
    "smiles_repr": "CN(C)C(=O)n1nnc(Cc2ccc(-c3cccc(CO)c3)cc2)n1",
    "target_system": "Transient receptor potential cation channel subfamily V member 1 (Homo sapiens)",
    "property_label": "IC50",
    "reported": "> 100 µM"
  },
  {
    "smiles_repr": "CN(C)C(=O)n1nnc(Cc2ccc(-c3ccc(CO)cc3)cc2)n1",
    "target_system": "Transient receptor potential cation channel subfamily V member 1 (Homo sapiens)",
    "property_label": "IC50",
    "reported": "> 100 µM"
  },
  {
    "smiles_repr": "CN(C)C(=O)n1nnnc1Cc1ccc(-c2cccc(C(N)=O)c2)cc1",
    "target_system": "Transient receptor potential cation channel subfamily V member 1 (Homo sapiens)",
    "property_label": "IC50",
    "reported": "> 100 µM"
  },
  {
    "smiles_repr": "CN(C)C(=O)n1nnnc1Cc1ccc(-c2ccccc2)cc1",
    "target_system": "Transient receptor potential cation channel subfamily V member 1 (Homo sapiens)",
    "property_label": "IC50",
    "reported": "> 100 µM"
  },
  {
    "smiles_repr": "CN(Cc1ccc2ccccc2c1)C(=O)n1nnnc1Cc1ccc(-c2ccccc2)cc1",
    "target_system": "Transient receptor potential cation channel subfamily V member 1 (Homo sapiens)",
    "property_label": "IC50",
    "reported": "7.6 µM"
  },
  {
    "smiles_repr": "CC(=O)c1cccc(-c2ccc(Cc3nnnn3C(=O)N(C)C)cc2)c1",
    "target_system": "Transient receptor potential cation channel subfamily V member 1 (Homo sapiens)",
    "property_label": "IC50",
    "reported": "> 100 µM"
  },
  {
    "smiles_repr": "CN(C)C(=O)n1nnc(Cc2ccc(-c3ccccc3O)cc2)n1",
    "target_system": "Transient receptor potential cation channel subfamily V member 1 (Homo sapiens)",
    "property_label": "IC50",
    "reported": "> 100 µM"
  },
  {
    "smiles_repr": "CN(C)C(=O)n1nnnc1Cc1ccc(-c2ccccc2O)cc1",
    "target_system": "Transient receptor potential cation channel subfamily V member 1 (Homo sapiens)",
    "property_label": "IC50",
    "reported": "> 100 µM"
  }
]
